Data provenance is ChEMBL document CHEMBL5053545.

# Test system: Escherichia coli
# experimental.details: Binding affinity to Escherichia coli sliding clamp assessed as gibbs free energy change by ITC analysis
Where a SMILES comes first, the peptide text is derived from it. [ ]: non-standard residue; d: D form. The star is where a group is joined. Hydrocinnamoyl = O=C(CCc1ccccc1)*; X3 = CN(C)/C(=N\CC(=O)*)N1CCOCC1; Cha = N[C@@H](CC1CCCCC1)C(=O)O
observable: deltaG (kcal/mol)
The answer is to be given in kcal/mol; state only the numeric part.

### Prompt What does the record list as deltaG for CC(C)C[C@H](NC(=O)[C@H](CC(=O)O)NC(=O)[C@H](CC1CCCCC1)NC(=O)[C@H](CCC(N)=O)NC(=O)CCc1ccccc1)C(=O)N[C@@H](Cc1ccccc1)C(=O)O (Hydrocinnamoyl-Q[Cha]DLF-OH) ?
### Response -9.1

### Prompt Thanks! And CC(C)C[C@H](NC(=O)[C@H](CC(=O)O)NC(=O)[C@H](CC1CCCCC1)NC(=O)[C@H](CCC(N)=O)NC(=O)C/N=C(\N(C)C)N1CCOCC1)C(=O)N[C@@H](Cc1ccccc1)C(=O)O (X3-Q[Cha]DLF-OH) ?
### Response -9

---

# Tested on: Escherichia coli
# experimental.details: Binding affinity to Escherichia coli sliding clamp assessed as association rate constant by ITC analysis
Where a SMILES comes first, the peptide text is derived from it. [ ]: non-standard residue; d: D form. The star is where a group is joined. Acryloyl(3-(3-pyridyl),E) = O=C(/C=C/c1cccnc1)*; Phe(3,4-Cl2) = N[C@@H](Cc1ccc(Cl)c(Cl)c1)C(=O)O; Acetyl(1-naphthyl) = O=C(Cc1cccc2ccccc12)*; Cha = N[C@@H](CC1CCCCC1)C(=O)O; NMeD = CN[C@@H](CC(=O)O)C(=O)O
observable: K

### Prompt What does the record list as K for CC(=O)N[C@@H](CCC(N)=O)C(=O)N[C@@H](CC1CCCCC1)C(=O)N(C)[C@@H](CC(=O)O)C(=O)N[C@@H](CC(C)C)C(=O)N[C@@H](Cc1ccccc1)C(=O)O (Ac-Q[Cha][NMeD]LF-OH) ?
### Response 2.1 10^4/M/s

### Prompt Thanks! And CC(=O)N[C@@H](CCCNC(=N)N)C(=O)N[C@@H](CCC(N)=O)C(=O)N[C@@H](CC1CCCCC1)C(=O)N(C)[C@@H](CC(=O)O)C(=O)N[C@@H](CC(C)C)C(=O)N[C@@H](Cc1ccc(Cl)c(Cl)c1)C(=O)O (Ac-RQ[Cha][NMeD]L[Phe(3,4-Cl2)]-OH) ?
### Response 7.6 10^4/M/s

### Prompt Thanks! And CC(C)C[C@H](NC(=O)[C@H](CC(=O)O)NC(=O)[C@H](CC1CCCCC1)NC(=O)[C@H](CCC(N)=O)NC(=O)Cc1cccc2ccccc12)C(=O)N[C@@H](Cc1ccccc1)C(=O)O ({Acetyl(1-naphthyl)}-Q[Cha]DLF-OH) ?
### Response 6.5 10^4/M/s

### Prompt Thanks! And CC(C)C[C@H](NC(=O)[C@H](CC(=O)O)N(C)C(=O)[C@H](CC1CCCCC1)NC(=O)[C@H](CCC(N)=O)NC(=O)/C=C/c1cccnc1)C(=O)N[C@@H](Cc1ccc(Cl)c(Cl)c1)C(=O)O ({Acryloyl(3-(3-pyridyl),E)}-Q[Cha][NMeD]L[Phe(3,4-Cl2)]-OH) ?
### Response 1.1 10^5/M/s
